Source listed as patent US9163227B2.

Test: Stability of linkers L1-L4 conjugated to FGF21 (LC-MS)
Format: physicochemical
Settings: linker conjugated to FGF21ΔH-A129C, +4° C.; 336 hrs
Description: The following experiment was performed to investigate the chemical stability over 2 weeks of the four linkers upon conjugation to FGF21: each linker was conjugated to FGF21, placed at +4° C. storage conditions, and aliquots were removed and quenched by freezing at specific time points, and linker stability was monitored by LCMS analysis. The four linkers were dissolved in DMSO from lyophilized stock material. […] L1 was reacted with protein for 30 mins; L2, L3 and L4 were reacted for 2 hrs. […]
Readings of +(1) H2O (single hydrolysis) for the listed compounds
Kindly answer with a numeric value in %, unit omitted.

                                   compound  observed
0  CC1=CC(=O)N(CCC(=O)NCCOCCOCCC(=O)Nc2ccc(CCC(=O)N3CCC3=O)cc2)C1=O        28
1  O=C(CCN1C(=O)C=CC1=O)NCCOCCOCCC(=O)Nc1ccc(CCC(=O)N2CCC2=O)cc1        41
2  CC1=CC(=O)N(CC2CCC(C(=O)NCCOCCOCCC(=O)Nc3ccc(CCC(=O)N4CCC4=O)cc3)CC2)C1=O (stereo not shown)        31

Alright, here's another compound for you.
QUERY: Record request: +(1) H2O (single hydrolysis) value, item "CC1=CC(=O)N(CCOCCOCCC(=O)Nc2ccc(CCC(=O)N3CCC3=O)cc2)C1=O"
RESULT: 29
